SYSTEM TESTED: Histidine--tRNA ligase (Trypanosoma cruzi (strain CL Brener)) (UniProt Q4DA54)
Sequence (Q4DA54 as listed by the source): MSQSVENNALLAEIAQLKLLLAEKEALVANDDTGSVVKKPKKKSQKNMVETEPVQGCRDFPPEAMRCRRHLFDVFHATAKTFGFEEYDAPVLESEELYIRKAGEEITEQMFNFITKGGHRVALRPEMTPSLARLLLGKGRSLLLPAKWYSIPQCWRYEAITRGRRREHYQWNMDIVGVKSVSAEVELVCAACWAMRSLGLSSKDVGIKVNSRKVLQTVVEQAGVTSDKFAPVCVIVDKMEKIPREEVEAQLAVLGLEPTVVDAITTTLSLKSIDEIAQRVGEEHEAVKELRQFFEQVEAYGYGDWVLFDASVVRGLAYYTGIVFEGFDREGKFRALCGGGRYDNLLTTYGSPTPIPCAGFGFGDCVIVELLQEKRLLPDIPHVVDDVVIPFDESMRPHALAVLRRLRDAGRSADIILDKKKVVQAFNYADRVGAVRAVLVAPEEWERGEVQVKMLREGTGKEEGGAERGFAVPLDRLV
METHOD DESCRIPTION: Trypanosoma cruzi histidyl tRNA synthetase (Tc-HisRS)
Type: functional
Design: scale not given: direction of the effect not stated beside the values
STATED CONDITIONS: 30 µM
The whole screen tested about 69,000 compounds, of which about 30 (0.04%) showed an effect of 50% or more. The full list was thinned out, with strong results kept by preference.

{"MOLECULE": "Cc1cccnc1CN1CCN(CC(=O)N(C)C)[C@@H]2CS(=O)(=O)C[C@@H]21", "SYSTEM TESTED": "Histidine--tRNA ligase (Trypanosoma cruzi (strain CL Brener)) (UniProt Q4DA54)", "UNIT NAME": "%", "Percent Effect": 7.03}
{"MOLECULE": "c1cnc(N2CCC3(CC2)CN(CC2CC2)c2ccccc23)nc1", "SYSTEM TESTED": "Histidine--tRNA ligase (Trypanosoma cruzi (strain CL Brener)) (UniProt Q4DA54)", "UNIT NAME": "%", "Percent Effect": 66.2}
{"MOLECULE": "CC(=O)N1CCO[C@@H]2CN(C(=O)c3ccc4ccccc4c3)CC[C@@H]2C1", "SYSTEM TESTED": "Histidine--tRNA ligase (Trypanosoma cruzi (strain CL Brener)) (UniProt Q4DA54)", "UNIT NAME": "%", "Percent Effect": -5.75}
{"MOLECULE": "CCc1cc(N[C@H]2CC[C@@H](N)CC2)n2nc(C)c(C)c2n1", "SYSTEM TESTED": "Histidine--tRNA ligase (Trypanosoma cruzi (strain CL Brener)) (UniProt Q4DA54)", "UNIT NAME": "%", "Percent Effect": 1.34}
{"MOLECULE": "CN(Cc1cccnc1)C[C@H]1OC[C@@H]2CCN(c3ncccn3)C[C@@H]21", "SYSTEM TESTED": "Histidine--tRNA ligase (Trypanosoma cruzi (strain CL Brener)) (UniProt Q4DA54)", "UNIT NAME": "%", "Percent Effect": -3.09}
{"MOLECULE": "COC[C@H]1CNC(=O)[C@@H]2CCN(Cc3cccc(C)n3)CC[C@H]12", "SYSTEM TESTED": "Histidine--tRNA ligase (Trypanosoma cruzi (strain CL Brener)) (UniProt Q4DA54)", "UNIT NAME": "%", "Percent Effect": 3.92}
{"MOLECULE": "CC(C)NC(=O)[C@H]1C[C@@H]2[C@@H](C1)OCCN2Cc1cccs1", "SYSTEM TESTED": "Histidine--tRNA ligase (Trypanosoma cruzi (strain CL Brener)) (UniProt Q4DA54)", "UNIT NAME": "%", "Percent Effect": 3.48}
{"MOLECULE": "CC(C)COC[C@@H]1CC[C@H]2[C@H](CCN2C(=O)c2ccncc2F)O1", "SYSTEM TESTED": "Histidine--tRNA ligase (Trypanosoma cruzi (strain CL Brener)) (UniProt Q4DA54)", "UNIT NAME": "%", "Percent Effect": -2.8}
{"MOLECULE": "Cn1cc(NC(=O)CCc2ccsc2)ccc1=O", "SYSTEM TESTED": "Histidine--tRNA ligase (Trypanosoma cruzi (strain CL Brener)) (UniProt Q4DA54)", "UNIT NAME": "%", "Percent Effect": 18.2}
{"MOLECULE": "O=C(N1CCOCC1)[C@@]12CCO[C@@H]1CCN(CC1CCCC1)C2", "SYSTEM TESTED": "Histidine--tRNA ligase (Trypanosoma cruzi (strain CL Brener)) (UniProt Q4DA54)", "UNIT NAME": "%", "Percent Effect": 0}
{"MOLECULE": "CCN(CC)CCNC(=O)CCc1c(C)nn(-c2ccccc2Cl)c1C", "SYSTEM TESTED": "Histidine--tRNA ligase (Trypanosoma cruzi (strain CL Brener)) (UniProt Q4DA54)", "UNIT NAME": "%", "Percent Effect": 0}
{"MOLECULE": "Fc1ccc(F)c(CN2CCC(c3cc4ncccc4cn3)CC2)c1", "SYSTEM TESTED": "Histidine--tRNA ligase (Trypanosoma cruzi (strain CL Brener)) (UniProt Q4DA54)", "UNIT NAME": "%", "Percent Effect": 29.2}
{"MOLECULE": "CN(C)C(=O)[C@H]1C[C@H]2OCC[C@H]2N(Cc2ccc3ccccc3n2)C1", "SYSTEM TESTED": "Histidine--tRNA ligase (Trypanosoma cruzi (strain CL Brener)) (UniProt Q4DA54)", "UNIT NAME": "%", "Percent Effect": 12.8}
{"MOLECULE": "Cn1cc(NC(=O)NCc2ccoc2)ccc1=O", "SYSTEM TESTED": "Histidine--tRNA ligase (Trypanosoma cruzi (strain CL Brener)) (UniProt Q4DA54)", "UNIT NAME": "%", "Percent Effect": 72.7}
{"MOLECULE": "CN1C(Cn2cccn2)C[C@@H]2CN(Cc3cnn(C)c3)CC[C@@H]21 (some centres undefined)", "SYSTEM TESTED": "Histidine--tRNA ligase (Trypanosoma cruzi (strain CL Brener)) (UniProt Q4DA54)", "UNIT NAME": "%", "Percent Effect": 7}
{"MOLECULE": "Cn1cc(NC(=O)NCc2ccsc2)ccc1=O", "SYSTEM TESTED": "Histidine--tRNA ligase (Trypanosoma cruzi (strain CL Brener)) (UniProt Q4DA54)", "UNIT NAME": "%", "Percent Effect": 72.7}
{"MOLECULE": "COc1ccc(OC)c(C2CCN(CC(C)(C)N3CCOCC3)C2)c1 (centres undefined)", "SYSTEM TESTED": "Histidine--tRNA ligase (Trypanosoma cruzi (strain CL Brener)) (UniProt Q4DA54)", "UNIT NAME": "%", "Percent Effect": 8.29}
{"MOLECULE": "COc1ccc(C2CC(=O)Nc3nc(N4CCOCC4)sc32)c(OC)c1 (centres undefined)", "SYSTEM TESTED": "Histidine--tRNA ligase (Trypanosoma cruzi (strain CL Brener)) (UniProt Q4DA54)", "UNIT NAME": "%", "Percent Effect": 72}
{"MOLECULE": "O=C(c1ccnnc1)N1CCN2C[C@H](Oc3cccc(F)c3)C[C@H]2C1", "SYSTEM TESTED": "Histidine--tRNA ligase (Trypanosoma cruzi (strain CL Brener)) (UniProt Q4DA54)", "UNIT NAME": "%", "Percent Effect": 1.62}
{"MOLECULE": "COc1ccc(CN2C[C@H]3CC[C@](O)(c4ccc(C)cn4)[C@H]3C2)c(F)c1", "SYSTEM TESTED": "Histidine--tRNA ligase (Trypanosoma cruzi (strain CL Brener)) (UniProt Q4DA54)", "UNIT NAME": "%", "Percent Effect": -0.54}
{"MOLECULE": "CC(C)c1nc(CNC2CCCN(c3cccnn3)C2)no1 (centres undefined)", "SYSTEM TESTED": "Histidine--tRNA ligase (Trypanosoma cruzi (strain CL Brener)) (UniProt Q4DA54)", "UNIT NAME": "%", "Percent Effect": 50.6}
{"MOLECULE": "COCCN1C[C@H]2CC[C@@H]1CN(C(=O)CCc1c(C)nn(C)c1C)C2", "SYSTEM TESTED": "Histidine--tRNA ligase (Trypanosoma cruzi (strain CL Brener)) (UniProt Q4DA54)", "UNIT NAME": "%", "Percent Effect": 13.1}
{"MOLECULE": "Cc1ncccc1NC(=O)[C@@H]1CCO[C@@H]2CCN(c3ccccc3)C[C@@H]21", "SYSTEM TESTED": "Histidine--tRNA ligase (Trypanosoma cruzi (strain CL Brener)) (UniProt Q4DA54)", "UNIT NAME": "%", "Percent Effect": 7.26}
{"MOLECULE": "Fc1cccc(CN2CCC(c3cc4ncccc4cn3)CC2)c1F", "SYSTEM TESTED": "Histidine--tRNA ligase (Trypanosoma cruzi (strain CL Brener)) (UniProt Q4DA54)", "UNIT NAME": "%", "Percent Effect": 33.9}
{"MOLECULE": "CC(=O)N1C[C@@H]2CC[C@H](C1)N(S(=O)(=O)c1ccc(F)cc1Cl)C2", "SYSTEM TESTED": "Histidine--tRNA ligase (Trypanosoma cruzi (strain CL Brener)) (UniProt Q4DA54)", "UNIT NAME": "%", "Percent Effect": 3}
{"MOLECULE": "COc1ccc(C(C)C)cc1C1CC(=O)NCc2nc(N(C)C)sc21 (centres undefined)", "SYSTEM TESTED": "Histidine--tRNA ligase (Trypanosoma cruzi (strain CL Brener)) (UniProt Q4DA54)", "UNIT NAME": "%", "Percent Effect": 7.85}
{"MOLECULE": "O=C(c1ccco1)N1CCO[C@@H]2CN(Cc3nccs3)CC[C@@H]2C1", "SYSTEM TESTED": "Histidine--tRNA ligase (Trypanosoma cruzi (strain CL Brener)) (UniProt Q4DA54)", "UNIT NAME": "%", "Percent Effect": 2.21}
{"MOLECULE": "CN(Cc1ccsc1)C(=O)Nc1ccc(=O)n(C)c1", "SYSTEM TESTED": "Histidine--tRNA ligase (Trypanosoma cruzi (strain CL Brener)) (UniProt Q4DA54)", "UNIT NAME": "%", "Percent Effect": 13}
{"MOLECULE": "CC/N=c1/c(NC(=O)C2CC2)c(O)oc2ccccc12", "SYSTEM TESTED": "Histidine--tRNA ligase (Trypanosoma cruzi (strain CL Brener)) (UniProt Q4DA54)", "UNIT NAME": "%", "Percent Effect": 3.51}
{"MOLECULE": "Cc1cc(CN2CC[C@H]3C(=O)N(c4ccccc4)CCO[C@H]3C2)no1", "SYSTEM TESTED": "Histidine--tRNA ligase (Trypanosoma cruzi (strain CL Brener)) (UniProt Q4DA54)", "UNIT NAME": "%", "Percent Effect": 7.1}
{"MOLECULE": "Cc1cc(C(=O)N2C[C@@H]3COC[C@]3(c3nnc(C)o3)C2)on1", "SYSTEM TESTED": "Histidine--tRNA ligase (Trypanosoma cruzi (strain CL Brener)) (UniProt Q4DA54)", "UNIT NAME": "%", "Percent Effect": 0.99}
{"MOLECULE": "CNC(=O)[C@H]1C[C@@H]2CN(S(=O)(=O)c3cccc(C)c3)C[C@@H]2N1C", "SYSTEM TESTED": "Histidine--tRNA ligase (Trypanosoma cruzi (strain CL Brener)) (UniProt Q4DA54)", "UNIT NAME": "%", "Percent Effect": 5.88}
{"MOLECULE": "Cc1nc(CNC2CCCN(c3cccnn3)C2)no1 (centres undefined)", "SYSTEM TESTED": "Histidine--tRNA ligase (Trypanosoma cruzi (strain CL Brener)) (UniProt Q4DA54)", "UNIT NAME": "%", "Percent Effect": 6.55}
{"MOLECULE": "COC(=O)c1ccc(CNC(=O)Nc2ccc(=O)n(C)c2)cc1", "SYSTEM TESTED": "Histidine--tRNA ligase (Trypanosoma cruzi (strain CL Brener)) (UniProt Q4DA54)", "UNIT NAME": "%", "Percent Effect": 7.79}
{"MOLECULE": "c1ccc2c(c1)N(CC1CCOC1)CC21CCN(c2cnccn2)CC1 (centres undefined)", "SYSTEM TESTED": "Histidine--tRNA ligase (Trypanosoma cruzi (strain CL Brener)) (UniProt Q4DA54)", "UNIT NAME": "%", "Percent Effect": 29.6}
{"MOLECULE": "CCOc1ccc(CCC(=O)N2CC[C@H]3C(=O)NCCO[C@H]3C2)cc1", "SYSTEM TESTED": "Histidine--tRNA ligase (Trypanosoma cruzi (strain CL Brener)) (UniProt Q4DA54)", "UNIT NAME": "%", "Percent Effect": 3.45}
{"MOLECULE": "COc1ccc(C)cc1CN1CCC(c2cc3ncccc3cn2)CC1", "SYSTEM TESTED": "Histidine--tRNA ligase (Trypanosoma cruzi (strain CL Brener)) (UniProt Q4DA54)", "UNIT NAME": "%", "Percent Effect": 66.2}
{"MOLECULE": "Cc1cc(=O)n(C)cc1NC(=O)Cc1cccc(F)c1", "SYSTEM TESTED": "Histidine--tRNA ligase (Trypanosoma cruzi (strain CL Brener)) (UniProt Q4DA54)", "UNIT NAME": "%", "Percent Effect": 14.2}
{"MOLECULE": "CCN(CC)CCNC(=O)CCc1c(C)nn(-c2ccc(Cl)cc2)c1C", "SYSTEM TESTED": "Histidine--tRNA ligase (Trypanosoma cruzi (strain CL Brener)) (UniProt Q4DA54)", "UNIT NAME": "%", "Percent Effect": 2.27}
{"MOLECULE": "NCC1Cc2cc(-c3nccc(N4CCC(O)CC4)n3)cc(F)c2O1 (centres undefined)", "SYSTEM TESTED": "Histidine--tRNA ligase (Trypanosoma cruzi (strain CL Brener)) (UniProt Q4DA54)", "UNIT NAME": "%", "Percent Effect": 33.7}
{"MOLECULE": "Cn1cc(CN2CC[C@H]3C[C@H](c4nc(C5CC5)cs4)O[C@@H]3C2)cn1", "SYSTEM TESTED": "Histidine--tRNA ligase (Trypanosoma cruzi (strain CL Brener)) (UniProt Q4DA54)", "UNIT NAME": "%", "Percent Effect": 1.67}
{"MOLECULE": "COc1ccc(CNC(=O)Nc2ccc(=O)n(C)c2)cc1", "SYSTEM TESTED": "Histidine--tRNA ligase (Trypanosoma cruzi (strain CL Brener)) (UniProt Q4DA54)", "UNIT NAME": "%", "Percent Effect": 76.6}
{"MOLECULE": "CC1=CC[C@@H]2CN(C(=O)c3ccc(-c4nnn(C)n4)cc3)C[C@@H]2C1", "SYSTEM TESTED": "Histidine--tRNA ligase (Trypanosoma cruzi (strain CL Brener)) (UniProt Q4DA54)", "UNIT NAME": "%", "Percent Effect": 0.8}
{"MOLECULE": "O=C1C[C@H]2[C@@H](CCN2C(=O)Cc2cccs2)N1CC1CC1", "SYSTEM TESTED": "Histidine--tRNA ligase (Trypanosoma cruzi (strain CL Brener)) (UniProt Q4DA54)", "UNIT NAME": "%", "Percent Effect": 5.83}
